Each record here notes measured Papp B→A at 40 min, 10 μM.
- Experiment Notes: Caco-2 cell permeability assay (A-B and B-A)
- Assay type: in vitro ADME
- Run Parameters: human, B-A direction

Compound: CC[C@@H](NC(=O)N1C(=O)[C@H](Cc2ccnc(N)c2)[C@H]1C(=O)N(C)c1ccncc1)c1cccc(C#N)c1 [Compound 99]
Papp B→A at 40 min, 10 μM: 11 to 30 ×10⁻⁶ cm/s

Compound: CC[C@H](c1cccc(Cl)c1)N(C)C(=O)N1C(=O)[C@H](Cc2ccnc(N)c2)[C@H]1C(=O)N(C)c1ccncc1 [Compound 113]
Papp B→A at 40 min, 10 μM: 11 to 30 ×10⁻⁶ cm/s

Compound: CC[C@@H](NC(=O)N1C(=O)[C@H](Cc2ccnc(N)c2)[C@H]1C(=O)N(C)c1ccncc1)c1cccc(C)c1 [Compound 87]
Papp B→A at 40 min, 10 μM: 31 to 50 ×10⁻⁶ cm/s

---

- Assayed System: Trypsin (Bos taurus, UniProt P00760)
- Construct: gene PRSS1
- Sequence (P00760 24-246): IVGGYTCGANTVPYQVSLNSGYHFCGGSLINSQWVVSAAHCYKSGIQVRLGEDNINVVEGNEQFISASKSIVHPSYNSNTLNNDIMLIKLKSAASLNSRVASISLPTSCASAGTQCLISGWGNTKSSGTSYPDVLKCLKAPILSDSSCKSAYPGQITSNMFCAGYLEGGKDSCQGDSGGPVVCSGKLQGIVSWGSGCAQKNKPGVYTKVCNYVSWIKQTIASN
- Experiment Notes: Dose response assay for protease inhibitors: trypsin
- Assay type: biochemical
- Run Parameters: ratio versus Factor XIa
Readout: Ratio: Trypsin/FXIa

Smiles Entry: CC[C@H](NC(=O)N1C(=O)[C@H](Cc2ccnc(N)c2)[C@H]1C(=O)N(C)c1ccncc1)c1ccccc1C
Readout: Ratio: Trypsin/FXIa
Assay Result: G (“G” indicates 1-100)

Smiles Entry: CC[C@@H](NC(=O)N1C(=O)[C@H](Cc2ccnc(N)c2)[C@H]1C(=O)N(C)c1ccncc1)c1cccc(C#N)c1
Readout: Ratio: Trypsin/FXIa
Assay Result: G (“G” indicates 1-100)

Smiles Entry: CCN(C(=O)[C@@H]1[C@@H](Cc2ccnc(N)c2)C(=O)N1C(=O)N[C@@H](C1CCCCC1)C(F)(F)F)c1ccccc1
Readout: Ratio: Trypsin/FXIa
Assay Result: G (“G” indicates 1-100)

Smiles Entry: CC[C@@H](NC(=O)N1C(=O)[C@H](Cc2ccnc(N)c2)[C@H]1C(=O)N(C)c1ncccn1)C1CCCCC1
Readout: Ratio: Trypsin/FXIa
Assay Result: G (“G” indicates 1-100)

---

Each record here notes measured fraction unbound at 4 h, 10 μM.
- Experiment Notes: Plasma protein binding by equilibrium dialysis
- Assay type: in vitro ADME
- Run Parameters: both sexes, pooled plasma, pH 7.4, human plasma protein binding, read-out: PPB
Readout: fraction unbound at 4 h, 10 μM

Compound: C[C@@H](NC(=O)N1C(=O)[C@H](Cc2ccnc(N)c2)[C@H]1C(=O)N(C)c1ccccc1)C1CCCCC1 [Compound 49]
Readout: fraction unbound at 4 h, 10 μM
Assay Result: 0.05 to 0.09
--
Compound: CC[C@@H](NC(=O)N1C(=O)[C@H](Cc2ccnc(N)c2)[C@H]1C(=O)N(C)c1ccncc1)c1ccccc1 [Compound 42]
Readout: fraction unbound at 4 h, 10 μM
Assay Result: 0.1 to 0.5
--
Compound: CC[C@@H](NC(=O)N1C(=O)[C@H](Cc2ccnc(N)c2)[C@H]1C(=O)N(C)c1ccncc1)c1cccc(C#N)c1 [Compound 99]
Readout: fraction unbound at 4 h, 10 μM
Assay Result: 0.1 to 0.5
--
Compound: CC[C@@H](NC(=O)N1C(=O)[C@H](Cc2ccnc(N)c2)[C@H]1C(=O)N(C)c1ccncc1)c1cccc(OC)c1 [Compound 100]
Readout: fraction unbound at 4 h, 10 μM
Assay Result: 0.1 to 0.5
--
Compound: CN(C(=O)[C@@H]1[C@@H](Cc2ccnc(N)c2)C(=O)N1C(=O)N[C@@H](C1CCCCC1)C1CC1)c1ccccc1 [Compound 36]
Readout: fraction unbound at 4 h, 10 μM
Assay Result: < 0.05
--
Compound: CC[C@@H](NC(=O)N1C(=O)[C@H](Cc2ccnc(N)c2)[C@H]1C(=O)N(C)c1ccccc1)c1cccnc1 [Compound 44]
Readout: fraction unbound at 4 h, 10 μM
Assay Result: 0.1 to 0.5
--
Compound: CN(C(=O)[C@@H]1[C@@H](Cc2ccnc(N)c2)C(=O)N1C(=O)N[C@@H](C1CC1)C(F)(F)F)c1ccncc1 [Compound 77]
Readout: fraction unbound at 4 h, 10 μM
Assay Result: < 0.5

---

- Experiment Notes: Aqueous solubility in PBS pH 7.4
- Assay type: physicochemical
- Run Parameters: phosphate buffered saline, aqueous buffer, kinetic from dmso stock, PBS pH 7.4, room temperature

Compound: CC[C@@H](NC(=O)N1C(=O)[C@H](Cc2ccnc(N)c2)[C@H]1C(=O)N(C)c1ccncc1)c1cccc(C)c1 [Compound 87]
solubility at 24 h: > 100 µM
//
Compound: CN(C(=O)[C@@H]1[C@@H](Cc2ccnc(N)c2)C(=O)N1C(=O)N[C@@H](C1CCCCC1)C(F)(F)F)c1cc(Cl)cc(Cl)c1 [Compound 23]
solubility at 24 h: ≤ 10 µM
//
Compound: CN(C(=O)[C@@H]1[C@@H](Cc2ccnc(N)c2)C(=O)N1C(=O)N[C@@H](C1CCCCC1)C(F)(F)F)c1cncnc1 [Compound 19]
solubility at 24 h: > 100 µM
//
Compound: CC[C@@H](NC(=O)N1C(=O)[C@H](Cc2ccnc(N)c2)[C@H]1C(=O)N(C)c1ncncn1)c1ccccc1 [Compound 83]
solubility at 24 h: > 100 µM
//
Compound: Cc1ccccc1N(C)C(=O)[C@@H]1[C@@H](Cc2ccnc(N)c2)C(=O)N1C(=O)N[C@@H](C1CCCCC1)C(F)(F)F [Compound 15]
solubility at 24 h: 10 to 100 µM
//
Compound: CC[C@@H](NC(=O)N1C(=O)[C@H](Cc2ccnc(N)c2)[C@H]1C(=O)N(C)c1ccncc1)c1ccccc1 [Compound 42]
solubility at 24 h: > 100 µM
//
Compound: CCC[C@@H](NC(=O)N1C(=O)[C@H](Cc2ccnc(N)c2)[C@H]1C(=O)N(C)c1ccccc1)C1CCCCC1 [Compound 50]
solubility at 24 h: > 100 µM
//
Compound: CC[C@@H](NC(=O)N1C(=O)[C@H](Cc2ccnc(NC)c2)[C@H]1C(=O)N(C)c1ncccn1)C1CCCCC1 [Compound 80]
solubility at 24 h: > 100 µM
//
Compound: CC[C@@H](NC(=O)N1C(=O)[C@H](Cc2ccnc(N)c2)[C@H]1C(=O)N(C)c1ccncc1)c1cccc(OC)c1 [Compound 100]
solubility at 24 h: > 100 µM
//
Compound: CN(C(=O)[C@@H]1[C@@H](Cc2ccnc(N)c2)C(=O)N1C(=O)N[C@@H](C1CC1)C(F)(F)F)c1ncccn1 [Compound 78]
solubility at 24 h: > 100 µM
//
Compound: CN(C(=O)[C@@H]1[C@@H](Cc2ccnc(N)c2)C(=O)N1C(=O)N[C@@H](C1CCCCC1)C(F)(F)F)c1ccncc1 [Compound 18]
solubility at 24 h: > 100 µM
//
Compound: CC[C@@H](NC(=O)N1C(=O)[C@H](Cc2ccnc(N)c2)[C@H]1C(=O)N(C)c1ccncc1)c1cccc(C#N)c1 [Compound 99]
solubility at 24 h: > 100 µM
//
Compound: CN(C(=O)[C@@H]1[C@@H](Cc2ccnc(N)c2)C(=O)N1C(=O)N[C@@H](C1CC1)C(F)(F)F)c1ccncc1 [Compound 77]
solubility at 24 h: > 100 µM
//
Compound: CC[C@@H](NC(=O)N1C(=O)[C@H](Cc2ccnc(N)c2)[C@H]1C(=O)N(C)c1ccccc1)C1CCCCC1 [Compound 27]
solubility at 24 h: > 100 µM
//
Compound: CC[C@@H](NC(=O)N1C(=O)[C@H](Cc2ccnc(N)c2)[C@H]1C(=O)N(C)c1ccncc1)c1cccnc1 [Compound 59]
solubility at 24 h: > 100 µM
//
Compound: CN(C(=O)[C@@H]1[C@@H](Cc2ccnc(N)c2)C(=O)N1C(=O)N[C@@H](C1CCCCC1)C1CC1)c1ccccc1 [Compound 36]
solubility at 24 h: > 100 µM
//
Compound: CC[C@@H](NC(=O)N1C(=O)[C@H](Cc2ccnc(N)c2)[C@H]1C(=O)N(C)c1ccccc1)c1cccnc1 [Compound 44]
solubility at 24 h: > 100 µM
//
Compound: CC[C@@H](NC(=O)N1C(=O)[C@H](Cc2ccnc(N)c2)[C@H]1C(=O)N(C)c1ccncc1)c1ccc(Cl)cc1 [Compound 89]
solubility at 24 h: > 100 µM
//
Compound: CC[C@@H](NC(=O)N1C(=O)[C@H](Cc2cc(C)nc(N)c2)[C@H]1C(=O)N(C)c1ccccc1)c1cccc(Cl)c1 [Compound 120]
solubility at 24 h: 10 to 100 µM
//
Compound: CC[C@@H](NC(=O)N1C(=O)[C@H](Cc2ccnc(N)c2)[C@H]1C(=O)N(C)c1ccncc1)c1cccc(Cl)c1 [Compound 90]
solubility at 24 h: > 100 µM
//
Compound: CC[C@@H](NC(=O)N1C(=O)[C@H](Cc2ccnc(N)c2)[C@H]1C(=O)N(C)c1ncccn1)c1cccnc1 [Compound 61]
solubility at 24 h: > 100 µM
//
Compound: C[C@@H](NC(=O)N1C(=O)[C@H](Cc2ccnc(N)c2)[C@H]1C(=O)N(C)c1ccccc1)C1CCCCC1 [Compound 49]
solubility at 24 h: > 100 µM
//
Compound: CC[C@@H](NC(=O)N1C(=O)[C@H](Cc2ccnc(N)c2)[C@H]1C(=O)N(C)c1ncccn1)c1ccccc1 [Compound 84]
solubility at 24 h: > 100 µM
//
Compound: CC[C@@H](NC(=O)N1C(=O)[C@H](Cc2ccnc(N)c2)[C@H]1C(=O)N(C)c1ncccn1)c1cccc(Cl)c1 [Compound 121]
solubility at 24 h: > 100 µM
//
Compound: CC[C@@H](NC(=O)N1C(=O)[C@H](Cc2ccnc(N)c2)[C@H]1C(=O)N(C)c1ccccc1)C1CC1 [Compound 46]
solubility at 24 h: > 100 µM
//
Compound: CC[C@@H](NC(=O)N1C(=O)[C@H](Cc2ccnc(NC(=O)OC(C)(C)C)c2)[C@H]1C(=O)N(C)c1ccncc1)c1cccc(Cl)c1 [Compound 127]
solubility at 24 h: 10 to 100 µM
